The reported numbers originate from the supplement of paper PMC11061612.

Test system: JURL-MK1 (Chronic Myelogenous Leukemia)
Assay: Bliss excess, mean over the matrix (fraction); higher = more synergy
// label = satisfied if Bliss excess is not less than -0.0006, otherwise not satisfied

# Compound, Target entity, Cat
data = [
    ("Cc1c2c(nn1C)CSCc1cc(n(C)n1)CSc1cc(c3ccccc3c1)OCCCc1c(C(=O)O)n(C)c3c-2c(Cl)ccc13 [AZD5991] + C[C@@H]1COCCN1C2=NC(=NC(=C2)C3(CC3)[S@](=N)(=O)C)C4=C5C=CNC5=NC=C4 [AZD6738] (first compound max 1 µM, 7x7, partner max 10 µM)", "JURL-MK1 (Chronic Myelogenous Leukemia)", "satisfied"),
    ("Cc1c2c(nn1C)CSCc1cc(n(C)n1)CSc1cc(c3ccccc3c1)OCCCc1c(C(=O)O)n(C)c3c-2c(Cl)ccc13 [AZD5991] + Cn1cnc2c(F)c(Nc3ccc(Br)cc3Cl)c(C(=O)NOCCO)cc21 [Selumetinib] (first compound max 1 µM, 7x7, partner max 3 µM)", "JURL-MK1 (Chronic Myelogenous Leukemia)", "satisfied"),
    ("C[C@@H](c1ccc2nccn2c1)n1nnc2ncc(-c3cnn(C)c3)nc21 [Savolitinib] + CC1(C)CCC(CN2CCN(c3ccc(C(=O)NS(=O)(=O)c4ccc(NCC5CCOCC5)c([N+](=O)[O-])c4)c(Oc4cnc5[nH]ccc5c4)c3)CC2)=C(c2ccc(Cl)cc2)C1 [Venetoclax] (first compound max 1 µM, 7x7, partner max 1 µM)", "JURL-MK1 (Chronic Myelogenous Leukemia)", "not satisfied"),
]

Note: attention shifts to another entry.
Lookup: Please check the record CC(=O)Nc1cccc(-n2c(=O)n(C3CC3)c(=O)c3c(Nc4ccc(I)cc4F)n(C)c(=O)c(C)c32)c1 [Trametinib] + Cc1nc(-c2cn3c(n2)-c2ccc(-c4cnn(C(C)(C)C(N)=O)c4)cc2OCC3)n(C(C)C)n1 [Taselisib] (first compound max 1 µM, 7x7, partner max 10 µM) and state if its Bliss excess is at or above -0.0006.
Found: not satisfied

* * *

System: MG-63 (Osteosarcoma)
Test: Bliss excess, mean over the matrix (fraction); higher = more synergy
Items are presented alongside their recorded Bliss excess.

Known Bliss excess results, listed for orientation:
# Molecule, Quantity name, Endpoint result
records = [
    ("C[C@@H](Nc1cc(F)cc(F)c1)c1cc(C(=O)N(C)C)cc2c(=O)cc(N3CCOCC3)oc12 [AZD8186] + C1CN(CCC1(C(=O)N[C@@H](CCO)C2=CC=C(C=C2)Cl)N)C3=NC=NC4=C3C=CN4 [AZD5363] (first compound max 10 µM, 7x7, partner max 10 µM)", "Bliss excess", -0.0376),
    ("NC1(C(=O)N[C@@H](CCO)c2ccc(Cl)cc2)CCN(c2ncnc3[nH]ccc23)CC1 [Capivasertib] + CCN(CCO)CCCOc1ccc2c(Nc3cc(CC(=O)Nc4cccc(F)c4)[nH]n3)ncnc2c1 [AZD2811] (first compound max 10 µM, 7x7, partner max 1 µM)", "Bliss excess", -0.0295),
]

The record that follows has no Bliss excess shown yet.
Lookup: Which measured Bliss excess value corresponds to CN(CCO)CC[C@H](CSc1ccccc1)Nc1ccc(S(=O)(=O)NC(=O)c2ccc(N3CCC([C@@H](O)c4ccccc4-c4ccc(Cl)cc4)CC3)cc2)cc1S(=O)(=O)C(F)(F)F [AZD4320] + Cn1cnc2c(F)c(Nc3ccc(Br)cc3Cl)c(C(=O)NOCCO)cc21 [Selumetinib] (first compound max 1 µM, 7x7, partner max 3 µM) ?
Found: -0.0179

* * *

System: NCI-H1975 (Lung Adenocarcinoma)
Test: combination Emax (second highest fraction inhibited in the dose matrix, 72 h); higher = more inhibition; extreme values may be limits of the assay
Quantity name: combination Emax
// response body must contain only the number

# Compound, Endpoint result
measured = [
    ("COc1cccc2c1C(=O)c1c(O)c3c(c(O)c1C2=O)C[C@@](O)(C(=O)CO)C[C@@H]3O[C@H]1C[C@H](N)[C@H](O)[C@H](C)O1 [Doxorubicin] + Cc1cc2ncnn2cc1Nc1ncc2c(n1)n(C1CCOCC1)c(=O)n2C [AZD7648] (first compound max 1 µM, 7x7, partner max 10 µM)", 0.932),
]

The record that follows has no combination Emax shown yet.
Lookup: Which measured combination Emax value corresponds to CC(=O)c1c(C)c2cnc(Nc3ccc(N4CCNCC4)cn3)nc2n(C2CCCC2)c1=O [Palbociclib] + Cc1c2c(nn1C)CSCc1cc(n(C)n1)CSc1cc(c3ccccc3c1)OCCCc1c(C(=O)O)n(C)c3c-2c(Cl)ccc13 [AZD5991] (first compound max 10 µM, 7x7, partner max 1 µM) ?
Found: 0.321

* * *

Test system: SNU-1 (Gastric Carcinoma)
Test: Bliss excess, mean over the matrix (fraction); higher = more synergy
Quantity name: Bliss excess
// response body must contain only the number

# Compound, Bliss excess
rows = [
    ("Cc1c2c(nn1C)CSCc1cc(n(C)n1)CSc1cc(c3ccccc3c1)OCCCc1c(C(=O)O)n(C)c3c-2c(Cl)ccc13 [AZD5991] + C[C@@H]1COCCN1C2=NC(=NC(=C2)C3(CC3)[S@](=N)(=O)C)C4=C5C=CNC5=NC=C4 [AZD6738] (first compound max 1 µM, 7x7, partner max 10 µM)", 0.035),
    ("COc1nnc2ccc(N3CCC(c4ccc(OCCN5CCN(C)C(=O)[C@H]5C)cc4)CC3)nn12 [AZD5153] + CC1(C)CCC(CN2CCN(c3ccc(C(=O)NS(=O)(=O)c4ccc(NCC5CCOCC5)c([N+](=O)[O-])c4)c(Oc4cnc5[nH]ccc5c4)c3)CC2)=C(c2ccc(Cl)cc2)C1 [Venetoclax] (first compound max 1 µM, 7x7, partner max 1 µM)", -0.0523),
]

The record that follows has no Bliss excess shown yet.
Lookup: Param readout = Bliss excess; param system = SNU-1 (Gastric Carcinoma); param query = COc1nnc2ccc(N3CCC(c4ccc(OCCN5CCN(C)C(=O)[C@H]5C)cc4)CC3)nn12 [AZD5153] + Cc1c2c(nn1C)CSCc1cc(n(C)n1)CSc1cc(c3ccccc3c1)OCCCc1c(C(=O)O)n(C)c3c-2c(Cl)ccc13 [AZD5991] (first compound max 1 µM, 7x7, partner max 1 µM) ; response: value
Found: 0.0194

* * *

Tested on: NCI-H1975 (Lung Adenocarcinoma)
Test: Bliss excess, mean over the matrix (fraction); higher = more synergy
Quantity name: Bliss excess
// response body must contain only the number

Known Bliss excess results, listed for orientation:
# Molecule, Bliss excess
measured = [
    ("COc1cc2ncnc(Nc3ccc(F)c(Cl)c3)c2cc1OCCCN1CCOCC1 [Gefitinib] + CC(C)n1c(=O)n(C)c2cnc3cc(F)c(-c4ccc(OCCCN5CCCCC5)nc4)cc3c21 [AZD1390] (first compound max 10 µM, 7x7, partner max 0.3 µM)", -0.0676),
    ("CC1(C)CCC(CN2CCN(c3ccc(C(=O)NS(=O)(=O)c4ccc(NCC5CCOCC5)c([N+](=O)[O-])c4)c(Oc4cnc5[nH]ccc5c4)c3)CC2)=C(c2ccc(Cl)cc2)C1 [Venetoclax] + C[C@@H]1COCCN1C2=NC(=NC(=C2)C3(CC3)[S@](=N)(=O)C)C4=C5C=CNC5=NC=C4 [AZD6738] (first compound max 1 µM, 7x7, partner max 10 µM)", -0.0391),
]

The record that follows has no Bliss excess shown yet.
Lookup: Which measured Bliss excess value corresponds to COc1nnc2ccc(N3CCC(c4ccc(OCCN5CCN(C)C(=O)[C@H]5C)cc4)CC3)nn12 [AZD5153] + Cn1cnc2c(F)c(Nc3ccc(Br)cc3Cl)c(C(=O)NOCCO)cc21 [Selumetinib] (first compound max 1 µM, 7x7, partner max 10 µM) ?
Found: -0.0045

* * *

Test system: RPMI-8402 (T-Lymphoblastic Leukemia)
Assay: combination Emax (second highest fraction inhibited in the dose matrix, 72 h); higher = more inhibition; extreme values may be limits of the assay
Quantity name: combination Emax
// response body must contain only the number

# Compound, combination Emax
rows = [
    ("O=C(c1cc(Cc2n[nH]c(=O)c3ccccc23)ccc1F)N1CCN(C(=O)C2CC2)CC1 [Olaparib] + CN(CC[C@H](CSC1=CC=CC=C1)NC2=C(C=C(C=C2)S(=O)(=O)NC(=O)C3=CC=C(C=C3)N4CCC(CC4)[C@H](C5=CC=CC=C5C6=CC=C(C=C6)Cl)O)S(=O)(=O)C(F)(F)F)CCO [AZD4320] (first compound max 10 µM, 7x7, partner max 1 µM)", 0.935),
]

The record that follows has no combination Emax shown yet.
Lookup: Which measured combination Emax value corresponds to Cc1c2c(nn1C)CSCc1cc(n(C)n1)CSc1cc(c3ccccc3c1)OCCCc1c(C(=O)O)n(C)c3c-2c(Cl)ccc13 [AZD5991] + CC1(C)CCC(CN2CCN(c3ccc(C(=O)NS(=O)(=O)c4ccc(NCC5CCOCC5)c([N+](=O)[O-])c4)c(Oc4cnc5[nH]ccc5c4)c3)CC2)=C(c2ccc(Cl)cc2)C1 [Venetoclax] (first compound max 1 µM, 7x7, partner max 1 µM) ?
Found: 0.932
